So I've got a bunch of sequences here, and I need their protein stability index values.
Assay: protein stability index of a GFP-peptide fusion (yeast GPS) (PSI 1-4); higher = more stable; sorted into four equal gates, so the index is relative within each strain
Details: san1∆
Give bare numbers.

Items follow; give protein stability index for each.
1. YGLIRGLKFASFIFQYY [PRP8]
2. DDFLSKKRKAGRPRGRP [SNF2]

A:
1: 2.02; 2: 2.96

Items follow; give protein stability index for each.
1. AILQKSLKNVTEKNREI [YIL149C/MLP2]
2. VQKSTKTFSYKRPSTFY [RPL20A]

A:
1: 3.05; 2: 3.06

Items follow; give protein stability index for each.
1. QLVPIRLEFDQDRDRFF [SNF5]
2. DDDNSNVDYYNVAHRIK [SNF2]

A:
[2.98, 3.06]

Q: Tell me the measured protein stability index of DACPLDNQPWQLARCGR [HRT1] , please.
A: 2.03
